These measurements were taken from ChEMBL document CHEMBL3576842.

Measured log10 of IC50, listed per entry for reference.
experiment.summary: Cytotoxicity against human MCF7/ADR cells assessed as cell growth inhibition after 72 hrs by MTT assay
Type: functional, cell-based
condition.parameters: NCI/ADR-RES
endpoint.name: log10 of IC50 (log10 of the value in µM)

[[record]]
molecule = "Oc1cc(O)c2c(=[Se])cc(-c3ccccc3)oc2c1"
assay_value = 0.29

[[record]]
molecule = "O=c1c(O)c(-c2ccc(O)c(O)c2)oc2cc(O)cc(O)c12 [QUERCETIN]"
assay_value = 1.35

[[record]]
molecule = "COc1cc(O)c2c(=[Se])c(OC)c(-c3ccc(OC)c(OC)c3)oc2c1"
assay_value = 0.53

[[record]]
molecule = "O=c1cc(-c2ccccc2)oc2cc(O)cc(O)c12 [CHRYSIN]"
assay_value = 1.71

[[record]]
molecule = "Oc1cc(O)c2c(=S)cc(-c3ccccc3)oc2c1"
assay_value = 1.86


----------
System: C13
experiment.summary: Selectivity index, ratio of IC50 for HEK293 cells to IC50 for human C13 cells
Type: functional
endpoint.name: Ratio IC50

[[record]]
structure = "O=c1c(O)c(-c2ccc(O)c(O)c2)oc2cc(O)cc(O)c12"
assay_value = 2.5

[[record]]
structure = "Oc1cc(O)c2c(=S)cc(-c3ccccc3)oc2c1"
assay_value = 1.2

[[record]]
structure = "Oc1cc(O)c2c(=[Se])cc(-c3ccccc3)oc2c1"
assay_value = 3.7

[[record]]
structure = "O=c1cc(-c2ccccc2)oc2cc(O)cc(O)c12"
assay_value = 1.9

[[record]]
structure = "COc1cc(O)c2c(=[Se])c(OC)c(-c3ccc(OC)c(OC)c3)oc2c1"
assay_value = 5.1

[[record]]
structure = "COc1cc(O)c2c(=O)c(OC)c(-c3ccc(OC)c(OC)c3)oc2c1"
assay_value = 1.6


----------
Measured Ratio IC50, listed per entry for reference.
System: NCI/ADR-RES
experiment.summary: Resistance factor, ratio of IC50 for human MCF7/ADR cells to IC50 for human MCF7 cells
Format: functional
endpoint.name: Ratio IC50

[[record]]
compound = "COc1cc(O)c2c(=[Se])c(OC)c(-c3ccc(OC)c(OC)c3)oc2c1"
assay_value = 1.1

[[record]]
compound = "O=c1c(O)c(-c2ccc(O)c(O)c2)oc2cc(O)cc(O)c12 [QUERCETIN]"
assay_value = 1.1

[[record]]
compound = "O=c1cc(-c2ccccc2)oc2cc(O)cc(O)c12 [CHRYSIN]"
assay_value = 1

[[record]]
compound = "Oc1cc(O)c2c(=[Se])cc(-c3ccccc3)oc2c1"
assay_value = 0.9

[[record]]
compound = "Oc1cc(O)c2c(=S)cc(-c3ccccc3)oc2c1"
assay_value = 1


----------
experiment.summary: Cytotoxicity against human BxPC3 cells assessed as cell growth inhibition after 72 hrs by MTT assay
Format: functional, cell-based
condition.parameters: BXPC-3, 72 h
Measured IC50, listed per entry for reference.
endpoint.name: IC50 (µM)

[[record]]
structure = "Oc1cc(O)c2c(=S)cc(-c3ccccc3)oc2c1"
comparison_symbol = "="
assay_value = 64.4

[[record]]
structure = "COc1cc(O)c2c(=[Se])c(OC)c(-c3ccc(OC)c(OC)c3)oc2c1"
comparison_symbol = "="
assay_value = 2.42

[[record]]
structure = "O=c1c(O)c(-c2ccc(O)c(O)c2)oc2cc(O)cc(O)c12"
comparison_symbol = "="
assay_value = 24.1

[[record]]
structure = "COc1cc(O)c2c(=O)c(OC)c(-c3ccc(OC)c(OC)c3)oc2c1"
comparison_symbol = ">"
assay_value = 100

[[record]]
structure = "O=c1cc(-c2ccccc2)oc2cc(O)cc(O)c12"
comparison_symbol = "="
assay_value = 54.3

[[record]]
structure = "Oc1cc(O)c2c(=[Se])cc(-c3ccccc3)oc2c1"
comparison_symbol = "="
assay_value = 2.31


----------
Measured Ratio IC50, listed per entry for reference.
System: HEK293
experiment.summary: Selectivity index, ratio of IC50 for HEK293 cells to IC50 for human A431 cells
Assay type: functional
endpoint.name: Ratio IC50

[[record]]
compound = "O=c1cc(-c2ccccc2)oc2cc(O)cc(O)c12 [CHRYSIN]"
assay_value = 1.9

[[record]]
compound = "O=c1c(O)c(-c2ccc(O)c(O)c2)oc2cc(O)cc(O)c12 [QUERCETIN]"
assay_value = 2.5

[[record]]
compound = "Oc1cc(O)c2c(=[Se])cc(-c3ccccc3)oc2c1"
assay_value = 3.7

[[record]]
compound = "COc1cc(O)c2c(=[Se])c(OC)c(-c3ccc(OC)c(OC)c3)oc2c1"
assay_value = 5.1

[[record]]
compound = "Oc1cc(O)c2c(=S)cc(-c3ccccc3)oc2c1"
assay_value = 1.2

[[record]]
compound = "COc1cc(O)c2c(=O)c(OC)c(-c3ccc(OC)c(OC)c3)oc2c1 [RETUSIN]"
assay_value = 1.6


----------
Test system: MCF7
experiment.summary: Cytotoxicity against human MCF7 cells assessed as cell growth inhibition after 72 hrs by MTT assay
Type: functional, cell-based
condition.parameters: MCF7, 72 h
pIC50: −log10 of the molar value.
Note to self: values exactly at 5 are MET. So pIC50 at or above 5 is MET, below is NOT MET.

[[record]]
molecule = "O=c1c(O)c(-c2ccc(O)c(O)c2)oc2cc(O)cc(O)c12 [QUERCETIN]"
label_value = "NOT MET"

[[record]]
molecule = "Oc1cc(O)c2c(=[Se])cc(-c3ccccc3)oc2c1"
label_value = "MET"

[[record]]
molecule = "Oc1cc(O)c2c(=S)cc(-c3ccccc3)oc2c1"
label_value = "NOT MET"

[[record]]
molecule = "COc1cc(O)c2c(=O)c(OC)c(-c3ccc(OC)c(OC)c3)oc2c1 [RETUSIN]"
label_value = "NOT MET"

[[record]]
molecule = "O=c1cc(-c2ccccc2)oc2cc(O)cc(O)c12 [CHRYSIN]"
label_value = "NOT MET"

[[record]]
molecule = "COc1cc(O)c2c(=[Se])c(OC)c(-c3ccc(OC)c(OC)c3)oc2c1"
label_value = "MET"


----------
Tested on: HEK293
experiment.summary: Selectivity index, ratio of IC50 for HEK293 cells to IC50 for human BxPC3 cells
Format: functional
endpoint.name: Ratio IC50

[[record]]
structure = "COc1cc(O)c2c(=O)c(OC)c(-c3ccc(OC)c(OC)c3)oc2c1"
assay_value = 1.6

[[record]]
structure = "Oc1cc(O)c2c(=S)cc(-c3ccccc3)oc2c1"
assay_value = 1.2

[[record]]
structure = "O=c1cc(-c2ccccc2)oc2cc(O)cc(O)c12"
assay_value = 1.9

[[record]]
structure = "Oc1cc(O)c2c(=[Se])cc(-c3ccccc3)oc2c1"
assay_value = 3.7

[[record]]
structure = "O=c1c(O)c(-c2ccc(O)c(O)c2)oc2cc(O)cc(O)c12"
assay_value = 2.5

[[record]]
structure = "COc1cc(O)c2c(=[Se])c(OC)c(-c3ccc(OC)c(OC)c3)oc2c1"
assay_value = 5.1

